Assay conditions: in ethanol, 313.15 K

- Smiles code: "NS(=O)(=O)Cc1noc2ccccc12"
  solubility (mole fraction): 0.00373

###

Assay conditions: in DMF, 308.15 K

- Smiles code: "NS(=O)(=O)Cc1noc2ccccc12"
  solubility (mole fraction): 0.0946

###

Assay conditions: in DMF, 288.15 K
Endpoint: solubility (mole fraction)

- Smiles code: "NS(=O)(=O)Cc1noc2ccccc12"
  Experimental value: 0.0469

###

Assay conditions: in isopropanol, 283.15 K

- Smiles code: "NS(=O)(=O)Cc1noc2ccccc12"
  solubility (mole fraction): 0.000996

###

Assay conditions: in n-propanol, 313.15 K
Endpoint: solubility (mole fraction)

- Smiles code: "NS(=O)(=O)Cc1noc2ccccc12"
  Endpoint: "solubility (mole fraction)"
  Experimental value: 0.002

###

Assay conditions: in ethyl acetate, 273.15 K
Endpoint: solubility (mole fraction)

- Smiles code: "NS(=O)(=O)Cc1noc2ccccc12"
  Endpoint: "solubility (mole fraction)"
  Experimental value: 0.00498

###

Assay conditions: in isopropanol, 278.15 K
Endpoint: solubility (mole fraction)

- Smiles code: "NS(=O)(=O)Cc1noc2ccccc12"
  Endpoint: "solubility (mole fraction)"
  Experimental value: 0.000791

###

Assay conditions: in ethanol, 298.15 K
Endpoint: solubility (mole fraction)

- Smiles code: "NS(=O)(=O)Cc1noc2ccccc12"
  Experimental value: 0.00255

###

Assay conditions: in n-butanol, 278.15 K

- Smiles code: "NS(=O)(=O)Cc1noc2ccccc12"
  solubility (mole fraction): 0.00026

###

Assay conditions: in ethyl acetate, 308.15 K
Endpoint: solubility (mole fraction)

- Smiles code: "NS(=O)(=O)Cc1noc2ccccc12"
  Experimental value: 0.0108

###

Assay conditions: in acetonitrile, 283.15 K

- Smiles code: "NS(=O)(=O)Cc1noc2ccccc12"
  solubility (mole fraction): 0.00821

###

Assay conditions: in ethanol, 293.15 K

- Smiles code: "NS(=O)(=O)Cc1noc2ccccc12"
  solubility (mole fraction): 0.00221

###

Assay conditions: in 1,4-dioxane, 298.15 K

- Smiles code: "NS(=O)(=O)Cc1noc2ccccc12"
  solubility (mole fraction): 0.0354

###

Assay conditions: in 2-butanone, 298.15 K

- Smiles code: "NS(=O)(=O)Cc1noc2ccccc12"
  solubility (mole fraction): 0.0282

###

Assay conditions: in ethanol, 273.15 K
Endpoint: solubility (mole fraction)

- Smiles code: "NS(=O)(=O)Cc1noc2ccccc12"
  Experimental value: 0.00112

###

Assay conditions: in acetonitrile, 288.15 K

- Smiles code: "NS(=O)(=O)Cc1noc2ccccc12"
  solubility (mole fraction): 0.00982

###

Assay conditions: in toluene, 288.15 K

- Smiles code: "NS(=O)(=O)Cc1noc2ccccc12"
  solubility (mole fraction): "8.69e-05"

###

Assay conditions: in methanol, 313.15 K

- Smiles code: "NS(=O)(=O)Cc1noc2ccccc12"
  solubility (mole fraction): 0.005

###

Assay conditions: in isopropanol, 273.15 K
Endpoint: solubility (mole fraction)

- Smiles code: "NS(=O)(=O)Cc1noc2ccccc12"
  Endpoint: "solubility (mole fraction)"
  Experimental value: 0.000617

###

Assay conditions: in n-butanol, 288.15 K

- Smiles code: "NS(=O)(=O)Cc1noc2ccccc12"
  solubility (mole fraction): 0.000528

###

Assay conditions: in n-propanol, 293.15 K
Endpoint: solubility (mole fraction)

- Smiles code: "NS(=O)(=O)Cc1noc2ccccc12"
  Experimental value: 0.00105

###

Assay conditions: in 2-butanone, 313.15 K

- Smiles code: "NS(=O)(=O)Cc1noc2ccccc12"
  solubility (mole fraction): 0.0399

###

Assay conditions: in cyclohexanone, 288.15 K

- Smiles code: "NS(=O)(=O)Cc1noc2ccccc12"
  solubility (mole fraction): 0.0129

###

Assay conditions: in n-propanol, 278.15 K

- Smiles code: "NS(=O)(=O)Cc1noc2ccccc12"
  solubility (mole fraction): 0.000546

###

Assay conditions: in ethanol, 303.15 K

- Smiles code: "NS(=O)(=O)Cc1noc2ccccc12"
  solubility (mole fraction): 0.0029

###

Assay conditions: in n-propanol, 273.15 K
Endpoint: solubility (mole fraction)

- Smiles code: "NS(=O)(=O)Cc1noc2ccccc12"
  Endpoint: "solubility (mole fraction)"
  Experimental value: 0.00041

###

Assay conditions: in isopropanol, 293.15 K

- Smiles code: "NS(=O)(=O)Cc1noc2ccccc12"
  solubility (mole fraction): 0.00146

###

Assay conditions: in 2-butanone, 273.15 K

- Smiles code: "NS(=O)(=O)Cc1noc2ccccc12"
  solubility (mole fraction): 0.0132

###

Assay conditions: in cyclohexanone, 278.15 K

- Smiles code: "NS(=O)(=O)Cc1noc2ccccc12"
  solubility (mole fraction): 0.00898

###

Assay conditions: in cyclohexanone, 273.15 K
Endpoint: solubility (mole fraction)

- Smiles code: "NS(=O)(=O)Cc1noc2ccccc12"
  Experimental value: 0.00739

###

Assay conditions: in 2-butanone, 308.15 K
Endpoint: solubility (mole fraction)

- Smiles code: "NS(=O)(=O)Cc1noc2ccccc12"
  Experimental value: 0.0358

###

Assay conditions: in DMF, 303.15 K
Endpoint: solubility (mole fraction)

- Smiles code: "NS(=O)(=O)Cc1noc2ccccc12"
  Endpoint: "solubility (mole fraction)"
  Experimental value: 0.0812

###

Assay conditions: in cyclohexanone, 298.15 K

- Smiles code: "NS(=O)(=O)Cc1noc2ccccc12"
  solubility (mole fraction): 0.0184

###

Assay conditions: in acetonitrile, 313.15 K

- Smiles code: "NS(=O)(=O)Cc1noc2ccccc12"
  solubility (mole fraction): 0.0191

###

Assay conditions: in 1,4-dioxane, 308.15 K

- Smiles code: "NS(=O)(=O)Cc1noc2ccccc12"
  solubility (mole fraction): 0.0488

###

Assay conditions: in ethyl acetate, 283.15 K

- Smiles code: "NS(=O)(=O)Cc1noc2ccccc12"
  solubility (mole fraction): 0.00625

###

Assay conditions: in ethanol, 278.15 K
Endpoint: solubility (mole fraction)

- Smiles code: "NS(=O)(=O)Cc1noc2ccccc12"
  Experimental value: 0.00135

###

Assay conditions: in isopropanol, 313.15 K

- Smiles code: "NS(=O)(=O)Cc1noc2ccccc12"
  solubility (mole fraction): 0.00274

###

Assay conditions: in 2-butanone, 283.15 K
Endpoint: solubility (mole fraction)

- Smiles code: "NS(=O)(=O)Cc1noc2ccccc12"
  Experimental value: 0.0179

###

Assay conditions: in DMF, 273.15 K

- Smiles code: "NS(=O)(=O)Cc1noc2ccccc12"
  solubility (mole fraction): 0.0192

###

Assay conditions: in DMF, 278.15 K

- Smiles code: "NS(=O)(=O)Cc1noc2ccccc12"
  solubility (mole fraction): 0.0278

###

Assay conditions: in 1,4-dioxane, 303.15 K
Endpoint: solubility (mole fraction)

- Smiles code: "NS(=O)(=O)Cc1noc2ccccc12"
  Experimental value: 0.0416

###

Assay conditions: in toluene, 273.15 K
Endpoint: solubility (mole fraction)

- Smiles code: "NS(=O)(=O)Cc1noc2ccccc12"
  Experimental value: "3.56e-05"

###

Assay conditions: in 2-butanone, 293.15 K

- Smiles code: "NS(=O)(=O)Cc1noc2ccccc12"
  solubility (mole fraction): 0.0244

###

Assay conditions: in cyclohexanone, 313.15 K
Endpoint: solubility (mole fraction)

- Smiles code: "NS(=O)(=O)Cc1noc2ccccc12"
  Endpoint: "solubility (mole fraction)"
  Experimental value: 0.0307

###

Assay conditions: in acetonitrile, 278.15 K
Endpoint: solubility (mole fraction)

- Smiles code: "NS(=O)(=O)Cc1noc2ccccc12"
  Experimental value: 0.00691

###

Assay conditions: in ethyl acetate, 278.15 K
Endpoint: solubility (mole fraction)

- Smiles code: "NS(=O)(=O)Cc1noc2ccccc12"
  Experimental value: 0.00558

###

Assay conditions: in acetonitrile, 298.15 K

- Smiles code: "NS(=O)(=O)Cc1noc2ccccc12"
  solubility (mole fraction): 0.0131

###

Assay conditions: in methanol, 278.15 K

- Smiles code: "NS(=O)(=O)Cc1noc2ccccc12"
  solubility (mole fraction): 0.00274

###

Assay conditions: in methanol, 308.15 K

- Smiles code: "NS(=O)(=O)Cc1noc2ccccc12"
  solubility (mole fraction): 0.0046

###

Assay conditions: in n-propanol, 298.15 K
Endpoint: solubility (mole fraction)

- Smiles code: "NS(=O)(=O)Cc1noc2ccccc12"
  Endpoint: "solubility (mole fraction)"
  Experimental value: 0.00126

###

Assay conditions: in DMF, 298.15 K
Endpoint: solubility (mole fraction)

- Smiles code: "NS(=O)(=O)Cc1noc2ccccc12"
  Experimental value: 0.0687

###

Assay conditions: in ethyl acetate, 288.15 K

- Smiles code: "NS(=O)(=O)Cc1noc2ccccc12"
  solubility (mole fraction): 0.00704

###

Assay conditions: in n-butanol, 283.15 K
Endpoint: solubility (mole fraction)

- Smiles code: "NS(=O)(=O)Cc1noc2ccccc12"
  Experimental value: 0.000383
